FYI, the data here is from patent EP0677522A1.

- Tested on: S. pneumoniae Type-III
- Protocol Description: In vitro antibacterial activity (MIC), Japan Society of Chemotherapy Standard
- Type: cell-based
- Measurement Conditions: Streptococcus pneumoniae; inoculated cells 10⁶ cells/ml; medium supplemented with 10% horse blood
Measure Name: MIC (µg/mL)
Answer with a number only, understood to be in µg/mL.

Worked cases, MIC given:
{"Compound": "COc1c(N2CC[C@@](N)(CF)C2)c(F)cc2c(=O)c(C(=O)O)cn(C3CC3)c12", "Measurement Units": "µg/mL", "Quantitative Result": 0.025}
{"Compound": "CC1COc2c(N3CCN(C)CC3)c(F)cc3c(=O)c(C(=O)O)cn1c23 (centres unmarked) [Comp. Ex. 2, reference compound]", "Measurement Units": "µg/mL", "Quantitative Result": 0.78}

q: I'd like to know its MIC. The compound in question is COc1c(N2CC[C@@](CN)(CF)C2)c(F)cc2c(=O)c(C(=O)O)cn(C3CC3)c12
a: 0.05

q: Record request: MIC value, item COc1c(N2CCC(N)(CF)C2)c(F)cc2c(=O)c(C(=O)O)cn(C3CC3)c12 (centres unmarked)
a: 0.012

q: Which MIC value belongs to COc1c(N2CC[C@](N)(CF)C2)c(F)cc2c(=O)c(C(=O)O)cn(C3CC3)c12 ?
a: 0.012
